Origin of the recorded values: patent US20240287154A1

# TARGET DESC: human MC4R (Homo sapiens, UniProt P32245)
# Sequence (P32245 whole entry): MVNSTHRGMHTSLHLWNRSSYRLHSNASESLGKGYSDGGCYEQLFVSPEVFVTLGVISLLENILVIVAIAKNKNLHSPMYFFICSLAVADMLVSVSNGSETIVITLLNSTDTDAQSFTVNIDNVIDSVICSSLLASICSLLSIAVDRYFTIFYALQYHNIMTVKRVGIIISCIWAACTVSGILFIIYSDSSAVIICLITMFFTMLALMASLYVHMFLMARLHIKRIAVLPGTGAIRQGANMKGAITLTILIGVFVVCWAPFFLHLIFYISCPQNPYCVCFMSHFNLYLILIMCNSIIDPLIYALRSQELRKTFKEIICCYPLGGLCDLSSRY
# ASSAY DETAILS: Intracellular cAMP levels in live cells, MC3R selectivity relative to MC4R
# Assay type: cell-based
# CONDITION LABEL: cAMP assays in human MC3R and human MC4R stable cell lines
Non-standard residues stand in square brackets, D forms with d. Residues, ends and D or L forms follow the SMILES beside them. Phe(4-I) = N[C@@H](Cc1ccc(I)cc1)C(=O)O; Nle = CCCC[C@H](N)C(=O)O
MC3R selectivity (relative to MC4R) values, listed per item
# print the numeric value only

Solved entries (count: 4):
| COMPOUND | TARGET DESC | MC3R selectivity (relative to MC4R) |
| --- | --- | --- |
| CC(=O)N[C@H](C(=O)NCC(=O)N[C@@H](Cc1c[nH]cn1)C(=O)N[C@@H](Cc1ccccc1)C(=O)N[C@@H](CCCNC(=N)N)C(=O)N[C@H](Cc1c[nH]c2ccccc12)C(=O)N[C@@H](CC(=O)O)C(N)=O)[C@@H](C)O [CTX-1112, Thr-Gly-His-Phe-Arg-D-Trp-Asp] (Ac-TGHFR[dW]D-NH2) | human MC4R (Homo sapiens, UniProt P32245) | 8.6 |
| CCCC[C@H](NC(C)=O)C(=O)N[C@H](C)C(=O)N[C@@H](Cc1c[nH]cn1)C(=O)N[C@@H](Cc1ccc(I)cc1)C(=O)N[C@@H](CCCNC(=N)N)C(=O)N[C@H](Cc1c[nH]c2ccccc12)C(=O)N[C@@H](CC(=O)O)C(=O)N[C@@H](CCCNC(=N)N)C(N)=O [CTX-1170, Nle-D-Ala-His-Phe(4-I)-Arg-D-Trp-Asp-Arg] (Ac-[Nle][dA]H[Phe(4-I)]R[dW]DR-NH2) | human MC4R (Homo sapiens, UniProt P32245) | 67 |
| CC(C)[C@H](NC(=O)[C@@H](N)Cc1ccc(O)cc1)C(=O)N[C@@H](CCC(=O)O)C(=O)NCC(=O)N[C@@H](Cc1c[nH]cn1)C(=O)N[C@@H](Cc1ccccc1)C(=O)N[C@@H](CCCNC(=N)N)C(=O)N[C@H](Cc1c[nH]c2ccccc12)C(=O)N[C@@H](CC(=O)O)C(=O)N[C@@H](CCCNC(=N)N)C(=O)N[C@@H](Cc1ccccc1)C(=O)NCC(N)=O [CTX-1105] (H-YVEGHFR[dW]DRFG-NH2) | human MC4R (Homo sapiens, UniProt P32245) | 500 |
| CCCC[C@H](NC(=O)[C@@H](NC(=O)[C@@H](N)Cc1ccc(O)cc1)C(C)C)C(=O)N[C@H](C)C(=O)N[C@@H](Cc1c[nH]cn1)C(=O)N[C@@H](Cc1ccccc1)C(=O)N[C@@H](CCCNC(=N)N)C(=O)N[C@H](Cc1c[nH]c2ccccc12)C(=O)N[C@@H](CC(=O)O)C(=O)N[C@@H](CCCNC(=N)N)C(=O)N[C@@H](Cc1ccccc1)C(N)=O [CTX-1119] (H-YV[Nle][dA]HFR[dW]DRF-NH2) | human MC4R (Homo sapiens, UniProt P32245) | 24 |

Next compound, MC3R selectivity (relative to MC4R) to be filled in.
Summary for this compound, `CCCC[C@H](NC(=O)[C@@H](NC(=O)[C@@H](Cc1ccc(O)cc1)NC(=O)CNC(=O)COCCOCCNC(=O)CNC(=O)CCc1ccc(I)cc1)C(C)C)C(=O)N[C@H](C)C(=O)N[C@@H](Cc1c[nH]cn1)C(=O)N[C@@H](Cc1ccccc1)C(=O)N[C@@H](CCCNC(=N)N)C(=O)N[C@H](Cc1c[nH]c2ccccc12)C(=O)N[C@@H](CC(=O)O)C(=O)N[C@H](CCCNC(=N)N)C(=O)N[C@@H](Cc1ccccc1)C(=O)NCC(=O)O` : MC3R selectivity (relative to MC4R) is 86

---

# ASSAY DETAILS: in vitro
# CONDITION LABEL: mouse, plasma
Non-standard residues stand in square brackets, D forms with d. Residues, ends and D or L forms follow the SMILES beside them. NMeY = CN[C@@H](Cc1ccc(O)cc1)C(=O)O; Nle = CCCC[C@H](N)C(=O)O
OBSERVED PROPERTY: remaining at 2 h, 1 µM (%)
The reply should contain only the number, in %.

Consider the reported remaining at 2 h, 1 µM for these compounds:
| COMPOUND | remaining at 2 h, 1 µM, % |
| --- | --- |
| CCCC[C@H](NC(=O)[C@@H](NC(=O)[C@H](Cc1ccc(O)cc1)NC)C(C)C)C(=O)N[C@H](C)C(=O)N[C@@H](Cc1c[nH]cn1)C(=O)N[C@@H](Cc1ccccc1)C(=O)N[C@@H](CCCNC(=N)N)C(=O)N[C@H](Cc1c[nH]c2ccccc12)C(=O)N[C@@H](CC(=O)O)C(N)=O [CTX-1141] (H-[NMeY]V[Nle][dA]HFR[dW]D-NH2) | 108 |
| CCCC[C@H](NC(=O)[C@@H](NC(=O)[C@H](N)Cc1ccc(O)cc1)C(C)C)C(=O)N[C@H](C)C(=O)N[C@@H](Cc1c[nH]cn1)C(=O)N[C@@H](Cc1ccccc1)C(=O)N[C@@H](CCCNC(=N)N)C(=O)N[C@H](Cc1c[nH]c2ccccc12)C(=O)N[C@@H](CC(=O)O)C(=O)N[C@@H](CCCNC(=N)N)C(=O)N[C@@H](Cc1ccccc1)C(=O)NCC(=O)O [CTX-1125] (H-[dY]V[Nle][dA]HFR[dW]DRFG-OH) | 79.2 |
| CCCC[C@H](NC(=O)[C@@H](NC(C)=O)C(C)C)C(=O)N[C@H](C)C(=O)N[C@@H](Cc1c[nH]cn1)C(=O)N[C@@H](Cc1ccccc1)C(=O)N[C@@H](CCCNC(=N)N)C(=O)N[C@H](Cc1c[nH]c2ccccc12)C(=O)N[C@@H](CC(=O)O)C(=O)N[C@@H](CCCNC(=N)N)C(=O)N[C@@H](Cc1ccccc1)C(=O)NCC(=O)O [CTX-1121] (Ac-V[Nle][dA]HFR[dW]DRFG-OH) | 68.3 |

Then there is this compound:
The compound listed as CC(C)[C@H](NC(=O)[C@@H](N)Cc1ccc(O)cc1)C(=O)N[C@@H](CCC(=O)O)C(=O)NCC(=O)N[C@@H](Cc1c[nH]cn1)C(=O)N[C@@H](Cc1ccccc1)C(=O)N[C@@H](CCCNC(=N)N)C(=O)N[C@H](Cc1c[nH]c2ccccc12)C(=O)N[C@@H](CC(=O)O)C(=O)N[C@@H](CCCNC(=N)N)C(=O)N[C@@H](Cc1ccccc1)C(=O)NCC(N)=O [CTX-1105] (H-YVEGHFR[dW]DRFG-NH2) has a reported remaining at 2 h, 1 µM of 0.12
